test system: 653999-131-R-J2-PDC complex spheroid viability; test: Anticancer human tumor 653999-131-R-J2-PDC patient-derived lung adenocarcinoma cell line growth inhibition; conditions: second compound 0.1 µM; first compound 0.1 µM; stronger effect = lower value
MEASURED_PARAMETER: viability, T/C (%)

MOLECULE	NUMERIC_VALUE
Nc1ncn(C2CC(O)C(CO)O2)c(=O)n1 (centres undefined) + NC1CC1c1ccc(-c2cccc(O)c2)cc1	79.4
CC1COCCN1c1cc(-c2ccnn2C)c2ccnc(-c3ccn[nH]3)c2n1 (centres undefined) + NC1CCC(NC2CC2c2ccccc2)CC1	33
COc1ccc([C@@H](O)c2cc(-c3ncnc4cc(N5CCOCC5)ccc34)c(F)cc2Cl)nn1 + NC1CC1c1ccc(-c2cccc(O)c2)cc1	84.6
Cn1ncnc1C1c2n[nH]c(=O)c3cc(F)cc(c23)NC1c1ccc(F)cc1 (centres undefined) + NC1CC1c1ccc(-c2cccc(O)c2)cc1	83.4
CC(C)CC(NC(=O)C(Cc1ccccc1)NC(=O)c1cnccn1)B(O)O (centres undefined) + NC1CCC(NC2CC2c2ccccc2)CC1	1.51
O=C(c1cc(Cc2n[nH]c(=O)c3ccccc23)ccc1F)N1CCN(C(=O)C2CC2)CC1 + NC1CC1c1ccc(-c2cccc(O)c2)cc1	106
CC(C)CC(NC(=O)CNC(=O)c1cc(Cl)ccc1Cl)B1OC(=O)CC(CC(=O)O)(C(=O)O)O1 (centres undefined) + NC1CC1c1ccc(-c2cccc(O)c2)cc1	19.6
COc1cc(Nc2ncc3c(n2)-c2ccc(Cl)cc2C(c2c(F)cccc2OC)=NC3)ccc1C(=O)O + NC1CCC(NC2CC2c2ccccc2)CC1	78.5
CC1(C)CCC(CN2CCN(c3ccc(C(=O)NS(=O)(=O)c4ccc(NCC5CCOCC5)c([N+](=O)[O-])c4)c(Oc4cnc5[nH]ccc5c4)c3)CC2)=C(c2ccc(Cl)cc2)C1 + NC1CC1c1ccc(-c2cccc(O)c2)cc1	118

====

Test system: 653999-131-R-J2-PDC complex spheroid viability
Experiment: Anticancer human tumor 653999-131-R-J2-PDC cell line growth inhibition;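 note: spheroids exposed to agents for seven days before readout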
Conditions: second compound 3.16 µM; first compound 0.949 µM; stronger effect = lower value
Text: Multicellular complex tumor spheroid response to LSD1 Inhibitor Iadademstat in combination with a variety of drugs and investigational agents in selected tumor cell lines The current study was undertaken to assess response to LSD1 inhibitors in combination with standard-of-care drugs and investigational agents in solid tumor complex spheroid models as well as in the K-562 leukemia. […] Compounds. […] If the clinical Cmax for an agent had not been determined, the highest concentration tested was 10 microM. […]

MOLECULE	viability, T/C
NS(=O)(=O)OCC1CC(n2ccc3c(NC4CCc5ccccc54)ncnc32)CC1O (stereo not drawn) + NC1CCC(NC2CC2c2ccccc2)CC1	58.6%
O=C(C=Cc1cccc(S(=O)(=O)Nc2ccccc2)c1)NO + NC1CC1c1ccc(-c2cccc(O)c2)cc1	7.35%
O=C(C=Cc1cccc(S(=O)(=O)Nc2ccccc2)c1)NO + NC1CCC(NC2CC2c2ccccc2)CC1	32.3%

====

system: 653999-131-R-J2-PDC complex spheroid viability; experiment: Anticancer human tumor 653999-131-R-J2-PDC cell line growth inhibition; conditions: second compound 1 µM; first compound 0.03 µM; stronger effect = lower value;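 note: spheroids exposed to agents for seven days before readout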

COMPOUND	viability, T/C
Nc1ncn(C2CC(O)C(CO)S2)c(=O)n1 (stereo not given) + NC1CCC(NC2CC2c2ccccc2)CC1	78.7%
Nc1ncn(C2CC(O)C(CO)S2)c(=O)n1 (stereo not given) + NC1CC1c1ccc(-c2cccc(O)c2)cc1	88.8%
CCc1c2c(nc3ccc(O)cc13)-c1cc3c(c(=O)n1C2)COC(=O)[C@]3(O)CC + NC1CC1c1ccc(-c2cccc(O)c2)cc1	5.85%
CCc1c2c(nc3ccc(O)cc13)-c1cc3c(c(=O)n1C2)COC(=O)[C@]3(O)CC + NC1CCC(NC2CC2c2ccccc2)CC1	7.86%
Nc1ccccc1NC(=O)c1ccc(CNC(=O)OCc2cccnc2)cc1 + NC1CCC(NC2CC2c2ccccc2)CC1	69.7%
